meta.source: paper PMC5996347

Experiment Description: Mouse pharmacokinetics
Type: in vivo, female C57Bl/6 mice
Setup Conditions: female, C57Bl/6, mouse, in vivo
The reader will find reported bioavailability values listed item by item below.
Reported Endpoint: bioavailability (%)

O=C(CSc1nc2ccccc2c(=O)[nH]1)NC1CCC(F)(F)CC1 : 29
O=C(CSc1nc2ccccc2c(=O)[nH]1)NC1CCCCC1 : 46

* * *

Experiment Description: Mouse pharmacokinetics
Type: in vivo, female C57Bl/6 mice
Setup Conditions: female, C57Bl/6, mouse, whole blood; single rising oral dose, 100 mg/kg; read-out: AUC at 100 mg/kg oral (converted)
Reported Endpoint: AUC (ng·h/mL)

O=C(CSc1nc2ccccc2c(=O)[nH]1)NC1CCC(F)(F)CC1 : 2200
